Target: PI3Kα (Homo sapiens (Human), UniProt P42336)
Sequence (P42336 whole entry): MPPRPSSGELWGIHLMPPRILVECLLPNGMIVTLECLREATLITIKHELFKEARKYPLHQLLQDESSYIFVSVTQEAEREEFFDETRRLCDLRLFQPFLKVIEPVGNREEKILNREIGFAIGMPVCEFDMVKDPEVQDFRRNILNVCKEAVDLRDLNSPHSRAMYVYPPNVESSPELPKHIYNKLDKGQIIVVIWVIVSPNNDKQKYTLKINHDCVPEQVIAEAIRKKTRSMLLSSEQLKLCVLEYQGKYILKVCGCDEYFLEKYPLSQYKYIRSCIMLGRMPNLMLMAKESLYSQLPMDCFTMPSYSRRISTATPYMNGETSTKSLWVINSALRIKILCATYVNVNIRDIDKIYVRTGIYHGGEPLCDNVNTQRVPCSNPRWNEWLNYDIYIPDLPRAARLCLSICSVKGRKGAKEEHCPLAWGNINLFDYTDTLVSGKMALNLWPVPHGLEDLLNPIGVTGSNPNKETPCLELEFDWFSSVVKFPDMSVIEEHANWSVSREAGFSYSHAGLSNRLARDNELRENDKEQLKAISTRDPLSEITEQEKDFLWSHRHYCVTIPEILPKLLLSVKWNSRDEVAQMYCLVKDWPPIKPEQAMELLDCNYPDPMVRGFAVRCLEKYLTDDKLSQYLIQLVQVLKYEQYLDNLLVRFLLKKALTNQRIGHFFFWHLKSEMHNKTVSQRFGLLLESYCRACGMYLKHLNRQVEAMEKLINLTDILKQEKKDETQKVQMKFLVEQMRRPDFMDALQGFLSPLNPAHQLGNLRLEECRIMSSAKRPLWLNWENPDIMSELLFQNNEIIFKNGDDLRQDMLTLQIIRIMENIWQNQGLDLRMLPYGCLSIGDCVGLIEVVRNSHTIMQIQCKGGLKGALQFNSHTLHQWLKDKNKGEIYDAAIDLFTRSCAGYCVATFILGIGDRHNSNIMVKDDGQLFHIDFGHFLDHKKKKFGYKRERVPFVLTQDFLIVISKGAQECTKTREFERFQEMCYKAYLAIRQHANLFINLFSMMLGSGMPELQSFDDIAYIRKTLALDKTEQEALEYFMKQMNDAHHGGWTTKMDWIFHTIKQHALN
Sequence (P27986 whole entry partner): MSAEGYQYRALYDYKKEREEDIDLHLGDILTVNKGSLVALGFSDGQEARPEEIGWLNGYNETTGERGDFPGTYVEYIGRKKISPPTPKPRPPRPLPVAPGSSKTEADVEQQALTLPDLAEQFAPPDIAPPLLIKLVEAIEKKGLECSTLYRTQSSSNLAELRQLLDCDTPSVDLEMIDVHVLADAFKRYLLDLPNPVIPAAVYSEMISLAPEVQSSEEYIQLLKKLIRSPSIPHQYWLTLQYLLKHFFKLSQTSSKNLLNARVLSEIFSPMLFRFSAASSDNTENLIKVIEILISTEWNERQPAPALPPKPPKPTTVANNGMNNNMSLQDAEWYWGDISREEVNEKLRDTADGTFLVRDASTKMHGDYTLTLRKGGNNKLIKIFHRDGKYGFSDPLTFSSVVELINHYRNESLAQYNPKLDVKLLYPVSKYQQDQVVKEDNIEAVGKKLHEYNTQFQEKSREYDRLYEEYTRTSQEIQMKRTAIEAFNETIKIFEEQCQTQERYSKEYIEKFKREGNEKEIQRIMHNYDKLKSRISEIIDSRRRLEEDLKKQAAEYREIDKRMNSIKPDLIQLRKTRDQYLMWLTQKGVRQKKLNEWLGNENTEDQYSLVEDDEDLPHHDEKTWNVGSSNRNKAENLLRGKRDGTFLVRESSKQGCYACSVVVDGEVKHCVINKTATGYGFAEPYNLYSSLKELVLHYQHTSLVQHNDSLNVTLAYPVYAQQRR
Test: Inhibition of PI3Kα efficacy assay (ADP-Glo kinase assay)
Assay type: biochemical
Conditions: Table 2; read-out: PI3Kα inhibitory activity (IC50)
// NB: equality with 10 nM counts as not fulfilled; only IC50 strictly below is fulfilled

> print(dat)
                                    compound   answer.label
 1  COc1ncc(-c2ccc3ncnc(N4CCN(C(=O)/C=C/C(C)=O)CC4)c3c2)cc1NS(=O)(=O)c1cc(F)ccc1F [Example 94]  not fulfilled
 2  COc1ncc(-c2ccc3ncnc(N4CCN(C(=O)/C=C/C(C)=O)CC4)c3c2)cc1NS(=O)(=O)Nc1ccc(F)cc1F [Example 128]  not fulfilled
 3  COc1ncc(-c2ccc3ncnc(N4CCN(C5CN(C(=O)/C=C/C(C)=O)C5)CC4)c3c2)cc1NS(=O)(=O)c1ccc(F)cc1F [Example 56]      fulfilled
 4  CC(=O)/C=C/C(=O)N1CC2(CCN(c3ncnc4ccc(-c5cnc(Cl)c(NS(=O)(=O)c6c(F)cccc6F)c5)cc34)CC2)C1 [Example 87]      fulfilled
 5  C=C(F)C(=O)N1CCN(c2ncnc3ccc(-c4cnc(OC5CCCC5)c(NS(=O)(=O)c5ccc(F)cc5F)c4)cc23)CC1 [Example 108]  not fulfilled
 6  COc1ncc(-c2ccc3ncnc(N4CCN(C(=O)/C=C/C(C)=O)[C@@H](CC#N)C4)c3c2)cc1NS(=O)(=O)c1c(F)cccc1F [Example 116]      fulfilled
 7  COc1c(F)cc(-c2ccc3ncnc(N4CCN(C(=O)/C=C/C(C)=O)CC4)c3c2)cc1NS(=O)(=O)c1ccc(F)cn1 [Example 121]  not fulfilled
 8  C=CC(=O)N1C[C@H](C)N(c2ncnc3ccc(-c4cnc(OC)c(NS(=O)(=O)c5c(F)cccc5F)c4)cc23)C[C@H]1C [Example 53]      fulfilled
 9  COc1ncc(-c2ccc3ncnc(N4CCN(C(=O)/C=C/C(C)=O)CC4)c3c2)cc1NS(=O)(=O)c1c(F)cncc1F [Example 102]      fulfilled
10  COc1ncc(-c2ccc3ncnc(N4CCN(C(=O)/C=C/C(C)=O)[C@@H](CC#N)C4)c3c2)cc1NS(=O)(=O)c1ccc(F)cc1F [Example 112]      fulfilled
11  C=CC(=O)N1CCN(c2ncnc3ccc(-c4cnc(OC5CCCC5)c(NS(=O)(=O)c5ccc(F)cc5F)c4)cc23)CC1 [Example 106]  not fulfilled
12  COc1ncc(-c2ccc3ncnc(NC4CCN(C(=O)/C=C/C(C)=O)CC4)c3c2)cc1NS(=O)(=O)c1ccc(F)cc1F [Example 130]      fulfilled
13  C=C(F)C(=O)N1CC2(CCN(c3ncnc4ccc(-c5cnc(OC)c(NS(=O)(=O)c6c(F)cccc6F)c5)cc34)CC2)C1 [Example 47]      fulfilled

Reference for the values: patent US20250145589A1
